system: BT-549 breast; test: NCI-60 one-dose screen, 48 h; settings: 10 µM unless noted
Compounds without any hit were thinned out: in the full panel of roughly 83,000, 20% have a hit. The source made the active and inactive calls. Rule for the calls: active = growth percent below 10; inactive = the rest.
# valid calls are active, inactive; nothing else

# count of solved cases: 5
INSERT INTO assay_data (molecule, group) VALUES
  ('Cc1ccccc1CNc1ncnc2[nH]ncc12', 'inactive'),
  ('[O-]/[N+](=C\c1ccccc1)CC1(O)CCCCC1', 'inactive'),
  ('C#CCNC(=S)N/N=C(\C)c1ccccn1', 'active'),
  ('COc1cc2nccc(Oc3ccc(NC(=O)C4(C(=O)Nc5ccc(F)cc5)CC4)cc3)c2cc1OC(=O)c1ccc(N)cc1', 'inactive'),
  ('CC(COC(=O)c1ccccc1)N1CC2CCC(C1)O2 (stereo not given)', 'inactive');

Problem: Record request — test call for CC(C)(C)c1ccc(Cn2c(-c3nonc3N)nc3ccccc32)cc1
Result: inactive

Problem: Record request — test call for Cc1cc(C)c2c(NC(=O)Nc3ccc(Cl)c(Cl)c3)n[nH]c2n1
Result: inactive

----------
system: K-562 leukemia; assay: NCI-60 one-dose screen, 48 h (100 = growth as untreated, 0 = no growth, -100 = all killed); conditions: 10 µM unless noted
This is part of a sample that, as a whole, favours compounds with a hit. Of some 83,000 tested, about 20% had one in any assay.
Each entry below carries its reported growth.
Please state the figure in %; there is no need to write the unit.

Known results for compounds:
INSERT INTO measurements (compound, val) VALUES
  ('CC(CN1CCN(CCOCCO)CC1)CN1c2ccccc2Sc2ccc(Cl)cc21 (stereo unspecified)', 6.64),
  ('Cc1cc(C)c([O-])c(CN(C)CCN(C)Cc2cc(C)cc(C)c2[O-])c1.O=C([O-])c1cccc(C(=O)[O-])n1.[Ti+4]', -1.84);

Problem: Retrieve growth measured for COc1cc(C2CC(c3ccc(Cl)cc3)=NN2C=O)ccc1OS(=O)(=O)c1ccc(C)cc1 (stereo unspecified) and print it.
Result: 82.1

Problem: Retrieve growth measured for CC(=O)OC1Oc2ccccc2-c2oc3nc(=N)n(C)c-3cc21 (stereo unspecified) and print it.
Result: 94.9

Problem: Retrieve growth measured for COc1cc(-c2csc(NC(=O)Nc3cccc(C(F)(F)F)c3)n2)cc(OC)c1OC and print it.
Result: 31.6

Problem: Retrieve growth measured for COc1ccc(C2C=C(c3ccc(Cl)cc3)N=C3SC=CN32)cc1 (stereo unspecified) and print it.
Result: 104

----------
tested on: OVCAR-4 ovarian; test: NCI-60 one-dose screen, 48 h (100 = growth as untreated, 0 = no growth, -100 = all killed); settings: 10 µM unless noted
About 83,000 compounds went through this panel and 20% of them were active in at least one assay; those are over-represented in the sample as a whole.
Returns one of class 1 or class 0; class 1 when growth is >= 90%.

# count of solved cases: 2
INSERT INTO measurements (compound, target_or_system, group) VALUES
  ('CCCc1n(Cc2ccc3ccccc3c2)c2ccccc2[n+]1Cc1ccc2ccccc2c1', 'OVCAR-4 ovarian', 'class 0'),
  ('CCOc1ccc([C@@H]2[C@@H](Oc3ccccc3)C(=O)N2c2cc(OC)c(OC)c(OC)c2)cc1', 'OVCAR-4 ovarian', 'class 0');

Problem: In plain terms: is recorded growth at least 90% for O=C1C=CC(=O)N1CO ?
Result: class 1

Problem: In plain terms: is recorded growth at least 90% for CC(=O)c1ccc(Nc2nc(Cl)nc(Oc3c(Cl)cccc3Cl)n2)cc1 ?
Result: class 0

Problem: In plain terms: is recorded growth at least 90% for CCCCN(CCCC)CCC(=O)c1ccc(OC)c2ccccc12 ?
Result: class 1

Problem: In plain terms: is recorded growth at least 90% for O=C(Nc1cnc(C(F)(F)F)cn1)c1cc(Cl)ccc1O ?
Result: class 0

Problem: In plain terms: is recorded growth at least 90% for O=C1OCC2=C1C(c1ccc(Cl)c(Cl)c1)c1cc3c(cc1N2CCO)CCC3 (stereo not given) ?
Result: class 0

Problem: In plain terms: is recorded growth at least 90% for CCN(CC)C(Cl)=Nc1ccc(Cl)cc1 ?
Result: class 1

Problem: In plain terms: is recorded growth at least 90% for COc1ccc(C(=O)c2c(N)nc3n2CCCC3)cc1OC ?
Result: class 1

----------
tested on: EKVX NSCLC; assay: NCI-60 one-dose screen, 48 h (100 = growth as untreated, 0 = no growth, -100 = all killed); conditions: 10 µM unless noted
The panel holds about 83,000 compounds, 20% with a hit somewhere; the sample as a whole holds those more often.
Each entry below carries its reported growth.
Please state the figure in %; there is no need to write the unit.

INSERT INTO measurements (compound, endpoint_name, value_units, val) VALUES
  ('CCCCC(CCc1ccccn1)C(=O)c1ccccc1 (stereo not given)', 'growth', '%', 102),
  ('Clc1ccc2c(c1)-n1cccc1C(c1ccc3ccccc3c1)=NC2', 'growth', '%', 99.5),
  ('CCc1ccc2c(c1)N(CCO)C1=C(C(=O)OC1)C2c1cccc(Cl)c1 (stereo not given)', 'growth', '%', 43),
  ('CN1CCN(Cc2ccc(NC(=O)c3cncc(C#Cc4ccc(N)nc4)c3)cc2C(F)(F)F)CC1', 'growth', '%', 7.69),
  ('c1ccc(C2=Nc3ccccc3SC2)cc1', 'growth', '%', 87.3),
  ('Cc1c(O)c(=O)n(-c2ccccc2)n1C', 'growth', '%', 120);

Problem: Retrieve growth measured for O=[N+]([O-])c1cccc(N=C(Nc2cccc([N+](=O)[O-])c2)c2ccccc2)c1 and print it.
Result: 81.4

Problem: Retrieve growth measured for CCCC(CCC)NCC(O)c1cc(-c2ccc(C(F)(F)F)cc2)nc(C(F)(F)F)c1 (stereo not given) and print it.
Result: -9.08

Problem: Retrieve growth measured for CC[C@H](Nc1nc(N)nc(N)c1Cl)c1nc2cccc(NCc3ccc(C(=O)NO)cc3)c2c(=O)n1-c1ccccc1 and print it.
Result: 42

Problem: Retrieve growth measured for CCN(CC)c1ccc(C(=N)c2ccc(N(C)C)cc2)cc1 and print it.
Result: 15.2

----------
system: NCI-H23 lung; test: NCI-60 one-dose screen, 48 h (100 = growth as untreated, 0 = no growth, -100 = all killed); settings: 10 µM unless noted
This is part of a sample that, as a whole, favours compounds with a hit. Of some 83,000 tested, about 20% had one in any assay. Activity calls are given as the source filed them. The calls were made as follows: active = growth percent below 10; inactive = the rest.
Each entry below carries its reported growth.

INSERT INTO results (molecule, endpoint_name, val) VALUES
  ('O=C1/C(=C\c2cccn2Cc2ccc(Cl)cc2)c2ccccc2N1c1c(Cl)cccc1Cl', 'growth', '86.3% (inactive)'),
  ('COc1ccc(-c2nsc3c2NC(=O)CC3c2ccc3c(c2)OCO3)cc1 (stereo not given)', 'growth', '35.1% (inactive)'),
  ('Cc1cc(C)cc(NC(=O)Cn2nncc2CN2C(=O)CSC2=O)c1', 'growth', '97.5% (inactive)'),
  ('CCCCn1cnc(-c2cc(-c3ccccc3)cc(C(F)(F)F)c2)n1', 'growth', '98.1% (inactive)'),
  ('O=[N+]([O-])c1cc(F)c2cccnc2c1O', 'growth', '87.8% (inactive)');

Problem: Give growth for O=C(Nc1ccccc1Cl)Oc1ccc2ccccc2c1 tested on NCI-H23 lung.
Result: 91.3% (inactive)

Problem: Give growth for CC(=O)OC1Oc2cc(C)c(C)cc2-c2oc(=O)c(-c3cc4ccccc4oc3=O)cc21 (stereo not given) tested on NCI-H23 lung.
Result: 85.6% (inactive)

Problem: Give growth for O=C1OCC2=C1C(c1ccc(Cl)c(Cl)c1)c1cc3c(cc1N2CCO)CCC3 (stereo not given) tested on NCI-H23 lung.
Result: 31.5% (inactive)

Problem: Give growth for O=C(OCc1ccc2c(Cl)cc(Cl)c(O)c2n1)c1cc2ccccc2[nH]1 tested on NCI-H23 lung.
Result: -54.4% (active)

Problem: Give growth for O=[N+]([O-])c1cccc(N=C(Nc2cccc([N+](=O)[O-])c2)c2ccccc2)c1 tested on NCI-H23 lung.
Result: 86.4% (inactive)

----------
system: MDA-MB-435 melanoma; assay: NCI-60 one-dose screen, 48 h; conditions: 10 µM unless noted
This is part of a sample that, as a whole, favours compounds with a hit. Of some 83,000 tested, about 20% had one in any assay. The source made the active and inactive calls. Rule for the calls: active = growth percent below 10; inactive = the rest.
# valid calls are active, inactive; nothing else

# count of solved cases: 3
INSERT INTO results (molecule, group) VALUES
  ('O=C(Nc1ccccc1Cl)Oc1ccc2ccccc2c1', 'inactive'),
  ('C/C(=N\OC(=O)Nc1cccc(Cl)c1)c1ccccc1', 'inactive'),
  ('CN1CCN(Cc2ccc(NC(=O)c3ccc(C#N)c(C#Cc4cnc(N)c5ncccc45)c3)cc2C(F)(F)F)CC1', 'inactive');

Problem: Record request — test call for O=C(O)c1cn(-c2ccccc2)nc1-c1ccc(O)cc1
Result: inactive

Problem: Record request — test call for N#Cc1ccc(NC(=O)Nc2nc3ccc(OC(F)(F)F)cc3s2)cc1
Result: active

Problem: Record request — test call for CCCCCCCCCC1=NC(C)(C)CN1C(C)(C)CO
Result: inactive

Problem: Record request — test call for Cc1ccc(NC(=O)c2[nH]c(SCCN(C)C)nc2-c2ccc(F)cc2)cc1Nc1ccc2ncn(C)c(=O)c2c1
Result: inactive

Problem: Record request — test call for C/C(=C\C(=N\N=C(N)N)c1ccc(Cl)cc1)c1ccc(Cl)cc1
Result: active

Problem: Record request — test call for CCOC(=O)C(Nc1ccccc1)C(=O)OCC
Result: inactive

Problem: Record request — test call for CCCCCCCCCCCCCCCCS(=O)(=O)Nc1cc(C(=O)NN)cc(C(=O)NN)c1
Result: inactive

Problem: Record request — test call for CC(C)(C)NC(=O)C(OC(=O)C1CCc2cc(F)ccc2O1)c1ccccc1Cl (stereo not given)
Result: inactive

Problem: Record request — test call for Nc1nc(N)c2cc(Sc3ccc(Cl)cc3)ccc2n1
Result: inactive

Problem: Record request — test call for C/C(=N\OC(=O)Nc1ccccc1)c1ccccc1
Result: inactive

Problem: Record request — test call for CC1=C(O)C(=O)C(c2c(C)cc(C)c(Br)c2C)=C(O)C1=O
Result: inactive

Problem: Record request — test call for Cc1n(Cc2ccc3ccccc3n2)cc[n+]1Cc1ccc2ccccc2c1
Result: active

Problem: Record request — test call for Clc1cn2cc(-c3ccc(Cl)c(Cl)c3Cl)nc2s1
Result: inactive

Problem: Record request — test call for COc1cccc2nc(Nc3cccc(NC(=O)c4cc(N5CCOCC5)cc(C(F)(F)F)c4)c3)ccc12
Result: inactive

Problem: Record request — test call for O=c1c2sc3ncc(Cl)cc3c2nnn1-c1cccc(Cl)c1
Result: inactive
